- EXPERIMENT_DESCRIPTION: MTT cytotoxicity assay
- CONDITION_SUMMARY: human, KB epidermoid carcinoma cells (ATCC CCL-17)
QUANTITY_NAME: IC50 at 72 h (µg/mL)

compound="C#CCOC(=O)C1(C)CCCC2(C)C1CCC13C=C(C(C)C)C(CC12)C1=C3C(=O)C=CC1=O (stereo not shown)" quantity_name="IC50 at 72 h" quantitative_result=30.5
compound=Cc1[nH]c2c3c(c(O)cc2c1CO)[C@H]1C[C@@H]2[C@@]4(C)CCC[C@@](C)(CO)[C@@H]4CC[C@@]32C=C1C(C)C quantity_name="IC50 at 72 h" quantitative_result=39.5
compound="C#CCOC(=O)C1(C)CCCC2(C)C1CCC13C=C(C(C)C)C(CC12)c1c(O)cc2c(C(=O)OC)c(C)[nH]c2c13 (stereo not shown)" quantity_name="IC50 at 72 h" quantitative_result=42.2
compound="CC(C)C1=CC23CCC4C(C)(C(=O)O)CCCC4(C)C2CC1c1c(OCCC#N)ccc(OCCC#N)c13 (stereo not shown)" quantity_name="IC50 at 72 h" quantitative_result=57.3
